target: recombinant human kinase domain of JAK3 (Homo sapiens (Human), UniProt P52333); experiment: JAK Caliper enzyme assay at 1 mM ATP (JAK3); type: biochemical
Sequence (P52333 822-1111): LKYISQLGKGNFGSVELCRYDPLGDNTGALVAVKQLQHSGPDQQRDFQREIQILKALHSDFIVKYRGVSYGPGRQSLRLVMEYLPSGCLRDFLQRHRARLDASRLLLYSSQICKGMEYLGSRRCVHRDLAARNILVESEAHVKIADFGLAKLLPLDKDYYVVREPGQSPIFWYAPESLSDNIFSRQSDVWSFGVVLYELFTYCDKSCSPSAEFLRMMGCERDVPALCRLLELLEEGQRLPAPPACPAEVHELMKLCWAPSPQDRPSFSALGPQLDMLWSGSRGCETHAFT
quantity-name: IC50

Worked set:
compound | IC50
CNC(=O)c1ncc(Nc2nccc(N3C[C@H]4CC[C@@H](C3)N4[C@H]3C[C@H](C#N)C3)n2)cc1C (single isomer, unassigned) | > 10 µM
Cn1cc(Nc2nccc(N3C[C@H]4CC[C@@H](C3)N4C[C@H]3C[C@@H]3C#N)n2)cn1 | > 10 µM

Let us move to another entry and its IC50.
(Q) Any idea what its IC50 is? The compound is CNC(=O)c1ncc(Nc2nccc(N3C[C@H]4CC[C@@H](C3)N4[C@H]3C[C@@H](C#N)C3)n2)cc1C (single isomer, unassigned)
(A) 4.08 µM

* * *

target: recombinant human kinase domain of JAK2 (Homo sapiens (Human), UniProt O60674); test: JAK Caliper enzyme assay at 1 mM ATP (JAK2); format: biochemical
Sequence (O60674 849-1124): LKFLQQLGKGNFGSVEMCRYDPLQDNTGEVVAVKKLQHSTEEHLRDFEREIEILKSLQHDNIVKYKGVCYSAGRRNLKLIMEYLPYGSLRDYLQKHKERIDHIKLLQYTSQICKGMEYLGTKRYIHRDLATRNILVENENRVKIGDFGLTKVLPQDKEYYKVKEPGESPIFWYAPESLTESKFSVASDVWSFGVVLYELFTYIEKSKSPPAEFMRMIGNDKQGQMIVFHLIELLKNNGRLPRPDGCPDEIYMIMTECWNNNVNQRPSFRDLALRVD
Define the label as Y when IC50 is strictly less than 200 nM and as N in all remaining cases.

compound | class-label
Cn1cc(Nc2nccc(N3C[C@H]4CC[C@@H](C3)N4C3CN(S(C)(=O)=O)C3)n2)cn1 | Y
CNC(=O)c1ncc(Nc2nccc(N3C[C@H]4CC[C@@H](C3)N4[C@H]3C[C@@H](C#N)C3)n2)cc1C (single isomer, unassigned) | Y
O=C(C1CC1)N1[C@@H]2CC[C@H]1CN(c1nc(Nc3ccnnc3)ncc1F)C2 | N
CNC(=O)c1ncc(Nc2nccc(N3C[C@H]4CC[C@@H](C3)N4C(=O)[C@@H]3C[C@H]3F)n2)cc1C | Y
CCCNC(=O)c1cc(Nc2ncc(F)c(N3C[C@H]4CC[C@@H](C3)N4C(=O)C3CC3)n2)n[nH]1 | N
CNC(=O)c1ncc(Nc2nccc(N3C[C@H]4CC[C@@H](C3)N4C[C@H]3CC3(F)F)n2)cc1C | Y

Below: the item to evaluate.
(Q) Quick check: IC50 of `CC(C)NC(=O)N1[C@@H]2CC[C@H]1CN(c1ccnc(Nc3cnn(C)c3)n1)C2` under 200 nM?
(A) N

* * *

tested on: interferon alpha signalling (TYK2 and JAK1), STAT3 phosphorylation; experiment: Human whole blood INFα induced STAT3 phosphorylation assay; format: cell-based; details: compound 60 minutes at 37° C., IFNα 5000 U/ml for 15 minutes, pSTAT3 in lymphocyte population by flow cytometry, read-out: HWB IFN alpha IC50
quantity-name: pIC50
By convention, pIC50 is the negative base-10 log of a molar concentration.

Worked set:
compound | pIC50
CNC(=O)c1ncc(Nc2nccc(N3C[C@H]4CC[C@@H](C3)N4C(=O)[C@@H]3C[C@H]3C#N)n2)cc1Cl | 6.55
CNC(=O)c1ncc(Nc2nccc(N3C[C@H]4CC[C@@H](C3)N4C(=O)[C@@H]3C[C@H]3F)n2)cc1C | 6.96
CNC(=O)c1ncc(Nc2nccc(N3C[C@H]4CC[C@@H](C3)N4[C@H]3C[C@@H](C#N)C3)n2)cc1C (single isomer, unassigned) | 6.87
CCNC(=O)N1[C@@H]2CC[C@H]1CN(c1ccnc(Nc3cnc(C(=O)NC)c(C)c3)n1)C2 | 6.71
CCNC(=O)c1ccc(Nc2nccc(N3CC4CC(C3)N4C(=O)C3CC3)n2)cc1C | 6.03

(Q) Any idea what its pIC50 is? The compound is `CC(C)(C#N)c1ccc(Nc2nccc(N3C[C@H]4CC[C@@H](C3)N4C(=O)[C@@H]3CC3(F)F)n2)cn1`
(A) 6.61

(Q) Any idea what its pIC50 is? The compound is `N#CCCN1[C@@H]2CC[C@H]1CN(c1ccnc(Nc3cn[nH]c3)n1)C2`
(A) 7.19

* * *

biological target: recombinant human kinase domain of TYK2 (Homo sapiens (Human)); test: JAK Caliper enzyme assay at 1 mM ATP (TYK2); type: biochemical;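 note: microfluidic mobility-shift readout of synthetic peptide phosphorylation by TYK2, tuned to 20–30% conversion at room temperature, reaction stopped with EDTA, DMSO-only wells as uninhibited baseline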
Sequence (P29597 897-1176): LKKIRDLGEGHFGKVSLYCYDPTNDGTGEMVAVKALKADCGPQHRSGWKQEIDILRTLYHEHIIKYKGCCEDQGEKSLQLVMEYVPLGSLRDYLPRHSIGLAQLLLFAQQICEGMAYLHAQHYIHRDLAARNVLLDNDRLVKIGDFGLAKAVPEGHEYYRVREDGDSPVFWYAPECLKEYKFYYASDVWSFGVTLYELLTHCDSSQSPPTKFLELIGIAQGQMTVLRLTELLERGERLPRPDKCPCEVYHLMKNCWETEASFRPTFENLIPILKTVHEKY
Quick reference: IC50 of the listed items.
# value in nM; strip the unit string

compound | target-or-test-system | quantity-name | value-measured
C[C@@H](CO)c1ccc(Nc2nccc(N3C[C@H]4CC[C@@H](C3)N4C(=O)[C@@H]3CC3(F)F)n2)cn1 (single isomer, unassigned) [Example 11] | recombinant human kinase domain of TYK2 (Homo sapiens (Human)) | IC50 | 40

Let us move to another entry and its IC50.
(Q) Any idea what its IC50 is? The compound is C[C@H](CO)c1ccc(Nc2nccc(N3C[C@H]4CC[C@@H](C3)N4C(=O)[C@@H]3CC3(F)F)n2)cn1 (single isomer, unassigned) [Example 12]
(A) 28

* * *

Quick reference: IC50 of the listed items.
biological target: recombinant human kinase domain of JAK2 (Homo sapiens (Human), UniProt O60674); assay: JAK Caliper enzyme assay at 1 mM ATP (JAK2); type: biochemical;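 note: microfluidic mobility-shift read-out of fluorescent synthetic peptide phosphorylation, percent product converted from peak heights, room temperature, DMSO-only wells as uninhibited baseline, inhibition curve fit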
# value in nM; strip the unit string

compound | value-measured
Cn1cc(Nc2nccc(N3C[C@H]4CC[C@@H](C3)N4C(=O)C3CC(F)(F)C3)n2)cn1 | 1170

(Q) Any idea what its IC50 is? The compound is CNC(=O)c1ncc(Nc2nccc(N3C[C@H]4CC[C@@H](C3)N4C[C@@H]3CC3(F)F)n2)cc1C (single isomer, unassigned)
(A) 973

(Q) Any idea what its IC50 is? The compound is `CNC(=O)c1ncc(Nc2nccc(N3C[C@H]4CC[C@@H](C3)N4C(=O)[C@@H]3C[C@H]3C#N)n2)cc1F`
(A) 640

(Q) Any idea what its IC50 is? The compound is `N#CCCN1[C@@H]2CC[C@H]1CN(c1ccnc(Nc3cn[nH]c3)n1)C2`
(A) 406

* * *

test system: interferon alpha signalling (TYK2 and JAK1), STAT3 phosphorylation; experiment: Human whole blood INFα induced STAT3 phosphorylation assay; assay type: cell-based; conditions: compound 60 minutes at 37° C., IFNα 5000 U/ml for 15 minutes, pSTAT3 in lymphocyte population by flow cytometry, read-out: HWB IFN alpha IC50;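 note: flow cytometry with anti-pSTAT3 staining, signal as percent-positive × mean fluorescence, baseline from unstimulated wells, 11-point dilution series, IC50 as inhibition of pSTAT3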
quantity-name: IC50 (nM)
# value in nM; strip the unit string

Worked set:
compound | value-measured
Cn1cc(Nc2ncc(F)c(N3C[C@@]4(CO)C[C@@]4(NC(=O)[C@@H]4C[C@H]4C#N)C3)n2)cn1 | 146
C[C@@H](CO)c1ccc(Nc2nccc(N3C[C@H]4CC[C@@H](C3)N4C(=O)[C@@H]3CC3(F)F)n2)cn1 (single isomer, unassigned) | 134

Let us move to another entry and its IC50.
(Q) Any idea what its IC50 is? The compound is `CCNC(=O)c1ncc(Nc2nccc(N3C[C@H]4CC[C@@H](C3)N4C(=O)C3CC3)n2)cc1C`
(A) 287

* * *

target: recombinant human kinase domain of JAK3 (Homo sapiens (Human)); experiment: JAK Caliper enzyme assay at 1 mM ATP (JAK3); format: biochemical; details: 1 mM ATP; read-out: IC50 (nM) JAK3
quantity-name: IC50

Worked set:
compound | IC50
Cn1cc(Nc2nccc(N3C[C@H]4CC[C@@H](C3)N4C3CC(C#N)C3)n2)cn1 (stereo partly drawn) | 8800 nM
Cn1cc(Nc2nccc(N3C[C@H]4CC[C@@H](C3)N4C(=O)Nc3ccc(C(F)(F)F)cn3)n2)cn1 | > 10000 nM
C[C@@H](CO)c1ccc(Nc2nccc(N3C[C@H]4CC[C@@H](C3)N4C(=O)[C@@H]3CC3(F)F)n2)cn1 (single isomer, unassigned) | > 10000 nM

(Q) Any idea what its IC50 is? The compound is `CCCNC(=O)c1cc(Nc2ncc(F)c(N3C[C@H]4CC[C@@H](C3)N4C(=O)C3CC3)n2)n[nH]1`
(A) > 10000 nM

(Q) Any idea what its IC50 is? The compound is `CNC(=O)c1ncc(Nc2nccc(N3C[C@H]4CC[C@@H](C3)N4CC3(C)COC3)n2)cc1C`
(A) 4290 nM

(Q) Any idea what its IC50 is? The compound is CC(CC#N)N1[C@@H]2CC[C@H]1CN(c1ccnc(Nc3cn[nH]c3)n1)C2 (stereo partly drawn)
(A) > 10000 nM

(Q) Any idea what its IC50 is? The compound is `CNC(=O)c1ncc(Nc2nccc(N3C[C@H]4CC[C@@H](C3)N4C(=O)[C@@H]3C[C@H]3C#N)n2)cc1F`
(A) > 10000 nM

(Q) Any idea what its IC50 is? The compound is `CNC(=O)c1cc(Nc2nccc(N3C[C@H]4CC[C@@H](C3)N4C(=O)[C@@H]3CC3(F)F)n2)cc(C)n1`
(A) > 10000 nM

(Q) Any idea what its IC50 is? The compound is `Cn1cc(Nc2nccc(N3C[C@H]4CC[C@@H](C3)N4Cc3ccno3)n2)cn1`
(A) > 10000 nM

* * *

target: recombinant human kinase domain of JAK3 (Homo sapiens (Human), UniProt P52333); assay: JAK Caliper enzyme assay at 1 mM ATP (JAK3); format: biochemical; settings: 1 mM ATP; read-out: IC50 (nM) JAK3;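 note: microfluidic mobility-shift readout of synthetic peptide phosphorylation, percent product converted from peak heights, normalized to DMSO-only wells as uninhibited baseline, room temperature incubation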
quantity-name: IC50

Worked set:
compound | target-or-test-system | value-measured
CC(CC#N)N1[C@@H]2CC[C@H]1CN(c1ccnc(Nc3cnn(C)c3)n1)C2 (some centres unmarked) [Example 80] | recombinant human kinase domain of JAK3 (Homo sapiens (Human), UniProt P52333) | > 10000 nM
CCn1cc(Nc2nccc(N3C[C@H]4CC[C@@H](C3)N4C(=O)[C@@H]3C[C@H]3C#N)n2)cn1 [Example 24] | recombinant human kinase domain of JAK3 (Homo sapiens (Human), UniProt P52333) | 4990 nM

(Q) Any idea what its IC50 is? The compound is N#CCCN1[C@@H]2CC[C@H]1CN(c1ccnc(Nc3cn[nH]c3)n1)C2 [Example 79]
(A) 8420 nM

(Q) Any idea what its IC50 is? The compound is Cn1cc(Nc2nccc(N3C[C@H]4CC[C@@H](C3)N4c3ncc(C#N)o3)n2)cn1 [Example 78]
(A) > 10000 nM

(Q) Any idea what its IC50 is? The compound is CNC(=O)c1ncc(Nc2nccc(N3C[C@H]4CC[C@@H](C3)N4C(=O)[C@@H]3C[C@H]3C#N)n2)cc1C [Example 32]
(A) > 10000 nM

(Q) Any idea what its IC50 is? The compound is O=C([C@@H]1CC1(F)F)N1[C@@H]2CC[C@H]1CN(c1ccnc(Nc3cnc(CO)c(F)c3)n1)C2 [Example 25]
(A) > 10000 nM

(Q) Any idea what its IC50 is? The compound is Cn1cc(Nc2nccc(N3C[C@H]4CC[C@@H](C3)N4c3cc(C#N)ccn3)n2)cn1 [Example 92]
(A) 6560 nM

(Q) Any idea what its IC50 is? The compound is O=C(c1ccno1)N1[C@@H]2CC[C@H]1CN(c1ccnc(Nc3cn[nH]c3)n1)C2 [Example 17]
(A) > 10000 nM

Source listed as patent US9663526B2.
